Target: T1, 285bZIP E295A/E299A (human, UniProt P16220-1 285-339, C300S;C310S;C337S;E295A;E299A)
T1 sequence: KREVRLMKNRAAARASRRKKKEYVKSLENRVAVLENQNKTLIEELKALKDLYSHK
Assay: stopped-flow fluorescence (koff/kon); 10 mM Mg2+; 10 mM MES pH 6.5, 150 mM NaCl, 10 mM MgCl2, 0.05% Tween-20, 25 C; NMR: 10 mM Tris-d11, 150 mM NaCl, 10 mM MgCl2, 1 mM NaN3, 5% D2O (NOE at 25 C)
Conditions: protein: recombinant; tags: extra N-terminal Gly; chain copies: 2; label: 5' Alexa Fluor 488; hairpin (self-annealing, 11 bp stem, CCCC loop)
Readout: Kd (nM)

CCTGACGTCAGCCCCCTGACGTCAGG (structured_DNA) [AlexaFluor488-CREh]
0.102
